# Test system: M14 melanoma
# Procedure Details: NCI tumour cell line growth inhibition, 48 h
The entries below come with measured TGI values attached.
Write the value in µM as a bare number.

Below, each entry is followed by its recorded TGI result.
So what does the record say about TGI for O=C(CC(=O)Nc1ccccc1Cl)NNC(c1cc(N=Nc2ccc(Br)cc2)ccc1O)P(O)O (configuration not stated) ? 2.72

Next: `C/C(=N\NC(=S)NCCNC(=S)N/N=C(\C)c1ccccn1)c1ccccn1` 4.27

Next: `CN(C)c1ccc2nc3ccc(=N)cc-3sc2c1` 14.3

Next: COc1cc(/C=C2\CC3C4CCC5=CC(=O)CC[C@]5(C)C4CC[C@]3(C)C2=O)ccc1OCCCn1ccnc1 (some centres not stated) 23.7

Next: CC1(C)OCC(C2CCC3(C)C4=CCC5C(C)(C)C(O)CCC5(C)C4CCC23C)CC(O)C1O (configuration not stated) 35.4

Next molecule, TGI to be filled in.
So what does the record say about TGI for `CC1(C)CCC(S(=O)(=O)c2ccc3c(c2)/C(=N\O)c2cc(S(=O)(=O)N4CCN(c5ccc(F)cc5O)CC4)ccc2-3)CC1` ? 0.144

###

The entries below come with measured TGI values attached.
# Test system: HOP-18 NSCLC
# Procedure Details: NCI tumour cell line growth inhibition, 48 h

So what does the record say about TGI for `COc1ccc(/C=C/C(=O)C(C)C)cc1` ? > 100 µM

Next: `CON(C)C(=O)CCCO` > 100 µM

Next: `CCC[CH2][Sn]([CH2]CCC)([O]C(=O)Cc1ccc(F)cc1)[O]C(=O)Cc1ccc(F)cc1` 3.05 µM

Next: CN1CC[C@]2(C)c3c(O)cccc3CC3CCCC1C32C (some centres undefined) > 100 µM

Next: `O=C([O-])c1ccc2c(c1)-c1nc-2nc2[n-]c(nc3nc(nc4[n-]c(n1)c1ccc(C(=O)[O-])cc41)-c1ccc(C(=O)[O-])cc1-3)c1ccc(C(=O)[O-])cc21.[Gd+3].[K+]` > 100 µM

New cases:
So what does the record say about TGI for `C=CCNC(=O)/C=C\C(=O)O` ? > 100 µM

Next: COc1nc(NC2OC(COC(C)=O)C(OC(C)=O)C(OC(C)=O)C2OC(C)=O)c(N=CC=Nc2c(NC3OC(COC(C)=O)C(OC(C)=O)C(OC(C)=O)C3OC(C)=O)nc(OC)n(C)c2=O)c(=O)n1C (centres undefined) > 100 µM

Next: `CCc1cccc(C(C)C)c1NC(=O)C(=O)C1C(=O)NC(=O)NC1=O` > 100 µM

Next: `O=C1c2cccc3cc4ccccc4c(c23)C(=O)N1CCNCCNCCNCCN1C(=O)c2cccc3cc4ccccc4c(c23)C1=O` 0.398 µM

###

# System: NCI-H226 lung
# Procedure Details: NCI tumour cell line growth inhibition, 48 h; in the data active means GI50 below about 0.43 µM; inactive means the rest
Parameter call: string, one of active, inactive

Use the examples below as a reference point.
Would you mind telling me which call this test gave `COc1cc(Nc2cc(C)nc(N3CCN(c4ccnc5cc(Cl)ccc45)CC3)n2)cc(OC)c1` ? active

Next: `O=c1c(O)c(O)c1=O.[NH2-].[NH2-].[NH2-].[NH2-].[NH2-].[Ru+5]` inactive

Next: `CCOC(=O)c1ccc2c(c1)c1c(C)c3ccncc3c(C)c1n2C` active

Next: `COc1c(OCCCN2CCOCC2)ccc2c3n(c(=NC(=O)c4cnc(N)nc4)nc12)CCN3` active

Now look at this one.
Would you mind telling me which call this test gave `COc1cc(/C=C/C(=O)c2cc(OC)c(OC)c(OC)c2)ccc1Oc1nc2c(c(=O)n(C)c(=O)n2C)n1C` ? inactive

###

# Tested on: UO-31 renal
# Procedure Details: NCI tumour cell line growth inhibition, 48 h
The entries below come with measured TGI values attached.

So what does the record say about TGI for `CCC[CH2][Sn]([CH2]CCC)([O]C(=O)Cc1ccc(F)cc1)[O]C(=O)Cc1ccc(F)cc1` ? 2.75 µM

Next: `COc1cc2c(cc1O)N=C[C@@H]1C[C@@H](F)CN1C2=O` 9.62 µM

Next: `CC(C)(C)N=Cc1ccccc1[O-].CC(C)(C)N=Cc1ccccc1[O-].[Co+2]` > 100 µM

Next: `Cc1ccnc(NS(=O)(=O)c2ccc(NC3=CC(=O)C(=O)c4ccccc43)cc2)n1` > 100 µM

Next: O=C1OCC2=C1C(c1cccc(F)c1)c1cc3c(cc1N2CCO)CCC3 (centres undefined) > 42.5 µM

Next: `CCN1CCN(c2cc(C)nc(N(CCCNc3ccnc4cc(Cl)ccc34)Cc3cccs3)n2)CC1` 2.88 µM

Next: `COc1ccccc1N=Nc1c(-c2ccccc2)nn(C(=O)CC(=O)Nc2ccccc2Cl)c1-c1ccccc1` > 100 µM

Next: `COc1ccc(-c2cc(=O)c3c(O)c(OC)c(O)c(OC)c3o2)cc1OC` > 100 µM

New cases:
So what does the record say about TGI for `O=S(=O)(O)c1ccc(N=Nc2ccc(N=Nc3c(O)ccc4cc(S(=O)(=O)O)ccc34)cc2)cc1` ? > 100 µM

###

The entries below come with measured log10(TGI) values attached.
# Test system: OVCAR-4 ovarian
# Procedure Details: NCI tumour cell line growth inhibition, 48 h
The base-10 logarithm of TGI, taken with TGI in µM, is what appears here.

Below, each entry is followed by its recorded log10(TGI) result.
So what does the record say about log10(TGI) for Nc1nc2c(c3cnccc13)C(c1cccc(Br)c1)Cc1cnccc1-2 (stereo not given) ? 1.53

Next: `CCN1CCN(c2cc(C)nc(N(CCCNc3ccnc4cc(Cl)ccc34)Cc3cccs3)n2)CC1` 1.10

Next: COC1C(CO)OC(n2c3ccccc3c3c4c(c5c6ccccc6[nH]c5c32)C(=O)NC4=O)C(OC(=O)C(N)CCCCN)C1O (stereo not given) 0.76

Next: CC12OC(=O)[C@@]3(O)CCC4C(C[C@H]5O[C@]56CC=CC(=O)[C@]46C)C45OC[C@H]6C(=O)O[C@@H]1C[C@@]6(C)[C@H](C4=O)C23O5 (stereo not given in full) 0.92

Next: `O=C1/C(=C\c2ccc(Br)cc2)CN(C(=O)c2ccccc2F)C/C1=C\c1ccc(Br)cc1` 0.70

Next: `Cc1cc(OCc2n[nH]c(=S)n2/N=C/c2ccc(F)cc2)ccc1Cl` 1.74

New cases:
So what does the record say about log10(TGI) for Cc1cc2c(cc1C)N1C(Cl)=C3CCCCC3=C(C#N)C1N2 (stereo not given) ? 1.50

Next: `N#CC(C#N)=C/C=C(\Sc1ccc(F)c(Cl)c1)c1ccc(Cl)cc1` 0.87

Next: `CCCCCCCCCCCCCCCCP(=O)(OC)OC` 1.56

###

# Test system: KM12 colon
# Procedure Details: NCI tumour cell line growth inhibition, 48 h; in the data active = GI50 below about 0.43 µM; inactive = the rest
Parameter call: string, one of active, inactive

Would you mind telling me which call this test gave `O=C(Cc1csc2nc(-c3ccc(Br)cc3)cn12)N/N=C/c1cc(Br)ccc1O` ? inactive

New cases:
Would you mind telling me which call this test gave `Cc1c(NC(=O)c2cc(C(N)=O)nc3cc(F)ccc23)c(C(F)(F)F)nn1Cc1ccc(C#N)cc1` ? inactive

Next: `COC(=O)c1c2c(c[n+]([O-])c1C)C(=O)C=C(NCc1ccccc1)C2=O` active

###

# System: NCI-H23 lung
# Procedure Details: NCI tumour cell line growth inhibition, 48 h
Assay Readout: TGI

Below, each entry is followed by its recorded TGI result.
So what does the record say about TGI for CC(=O)Oc1ccc2c(c1OC(C)=O)CCC1C2=CC[C@]2(C)C(=O)CCC12 (stereo not given in full) ? 46.9 µM

Next: `Nc1nc(-c2cccc3ccccc23)cc2ccccc12` 24.1 µM

Next: N#CCCC(CC#N)N1CCN(C(CC#N)CCC#N)CC1 (stereo not given) > 100 µM

Next: `COc1c(Br)cc(Br)c(OC)c1-c1ccc[nH]1` > 100 µM

Next compound, TGI to be filled in.
So what does the record say about TGI for `c1ccc(N=C2SC(c3ccccc3)(c3ccccc3)c3ccccc32)cc1` ? > 100 µM

###

# Test system: 786-0 renal
# Procedure Details: NCI tumour cell line growth inhibition, 48 h
Assay Readout: GI50

So what does the record say about GI50 for `COc1cc2c(cc1O)N=C[C@@H]1C[C@@H](F)CN1C2=O` ? 2.05 µM

Next: `O=c1c(O)c(O)c1=O.[NH2-].[NH2-].[NH2-].[NH2-].[NH2-].[Ru+5]` > 100 µM

Next: `CC(C)(C)N=Cc1ccccc1[O-].CC(C)(C)N=Cc1ccccc1[O-].[Co+2]` 72.4 µM

Next molecule, GI50 to be filled in.
So what does the record say about GI50 for `O=C([O-])c1ccc2c(c1)-c1nc-2nc2[n-]c(nc3nc(nc4[n-]c(n1)c1ccc(C(=O)[O-])cc41)-c1ccc(C(=O)[O-])cc1-3)c1ccc(C(=O)[O-])cc21.[Gd+3].[K+]` ? 18 µM
